All values here come from BindingDB's records for doi:10.1021/jm00079a024.

Listed here are compounds together with their documented IC50.
Biological target: UniProt P68403
Sequence (P68403 whole entry): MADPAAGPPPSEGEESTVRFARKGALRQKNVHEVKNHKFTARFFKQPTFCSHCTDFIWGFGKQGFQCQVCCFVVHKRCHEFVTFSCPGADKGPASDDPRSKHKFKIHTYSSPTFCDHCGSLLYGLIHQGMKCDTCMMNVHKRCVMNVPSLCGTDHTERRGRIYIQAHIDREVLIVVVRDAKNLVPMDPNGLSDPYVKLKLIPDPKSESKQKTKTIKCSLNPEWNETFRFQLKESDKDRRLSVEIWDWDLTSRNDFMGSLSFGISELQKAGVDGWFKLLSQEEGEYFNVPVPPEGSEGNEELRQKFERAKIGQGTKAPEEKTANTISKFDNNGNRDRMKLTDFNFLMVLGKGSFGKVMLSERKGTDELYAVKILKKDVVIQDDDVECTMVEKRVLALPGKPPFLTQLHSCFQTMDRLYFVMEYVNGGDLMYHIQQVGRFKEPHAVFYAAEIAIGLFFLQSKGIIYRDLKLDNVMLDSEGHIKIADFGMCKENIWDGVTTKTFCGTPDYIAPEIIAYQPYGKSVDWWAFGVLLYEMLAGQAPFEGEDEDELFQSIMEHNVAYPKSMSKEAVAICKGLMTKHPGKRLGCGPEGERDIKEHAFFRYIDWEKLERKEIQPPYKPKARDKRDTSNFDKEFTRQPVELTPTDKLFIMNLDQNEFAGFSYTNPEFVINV
Test: PKC assay
reported.metric: IC50

>  <structure.smiles>
Cn1cc(C2=C(c3ccc(S(C)(=O)=O)cc3)C(=O)NC2=O)c2ccccc21

>  <reported.metric>
IC50

>  <reported>
> 100 µM

$$$$
>  <structure.smiles>
CSc1ccc(C2=C(c3cn(C)c4ccccc34)C(=O)NC2=O)cc1

>  <reported.metric>
IC50

>  <reported>
> 50 µM

$$$$
>  <structure.smiles>
Cn1cc(C2=C(c3cn(C)c4ccc(C(=O)O)cc34)C(=O)NC2=O)c2ccccc21

>  <reported.metric>
IC50

>  <reported>
> 50 µM

$$$$
>  <structure.smiles>
Cn1cc(C2=C(c3ccc(Cl)cc3)C(=O)NC2=O)c2ccccc21

>  <reported.metric>
IC50

>  <reported>
> 100 µM

$$$$
>  <structure.smiles>
Cn1cc(C2=C(c3cccc(Oc4ccccc4)c3)C(=O)NC2=O)c2ccccc21

>  <reported.metric>
IC50

>  <reported>
> 100 µM

$$$$
